Entry source: ChEMBL document CHEMBL1201862

Tested on: DU-145
assay: NCI tumour cell line growth inhibition, 48 h
The source made the active and inactive calls. Cut-off read from the data, not from the text of the source: active = GI50 up to about 1.1 µM and inactive = higher.
Can you answer with just one of these options? y (active), n (inactive)

Recorded results for 6 compounds are shown here.
How was CC1(C)C[C@H](O)[C@H](O)[C@]23C(=O)O[C@H](O)[C@H]2C(C=O)=CC[C@@H]13 classified in this test? n

Identify the outcome logged in this assay for the compound shown: CC(C)CCCC(C)[C@H]1CC[C@H]2[C@@H]3CC[C@H]4C[C@@H](CCC=C(c5cc(Cl)c(O)c(C(=O)O)c5)c5cc(Cl)c(O)c(C(=O)O)c5)CC[C@]4(C)[C@H]3CC[C@]12C (stereo partly specified) n

Identify the outcome logged in this assay for the compound shown: CC[C@@H]1ON(C)[C@H]2CN(C)C(=O)[C@@H]12 n

Status in this test for Cc1ccc(/C=N/n2c(Cc3ccccc3)n[nH]c2=O)cc1 ? n

Assay result, entry CC1CNC(c2cccc(OCc3ccc(COc4cccc(C5=NC(C)CN5)c4)cc3)c2)=N1 (stereo unspecified) — outcome? n

For CCCCCCCCCCCCC(O)[C@H]1CC[C@H](C(O)CCCCCC(=O)CCCCC2CC(C(C)=O)C(=O)O2)O1 (stereo partly specified) , which call appears in the assay record? n

New cases:
Entry Oc1ccc(-c2nc3cc(F)ccc3s2)cc1 : call = ? n

State the result this test recorded for CC(=O)OCC1OC(SC2OC(COC(C)=O)C(OC(C)=O)C(OC(C)=O)C2OC(C)=O)C(OC(C)=O)C(OC(C)=O)C1OC(C)=O (stereo unspecified) . n

# outcome recorded in this test, key = COC(=O)c1ccc(/C=N/c2cc(C)nn2-c2ccccc2)cc1 n

How was Cc1nc2c(O)nc3ccccc3c2o1 classified in this test? n

Per the assay record, what outcome was assigned to NCc1ccc(-c2ccc(-c3ccc(-c4ccc(CN)s4)s3)s2)s1 ? n

* * *

Tested on: SK-MEL-5
assay: NCI tumour cell line growth inhibition, 48 h
Active and inactive are the calls of the source. Rule as the data show it: active = GI50 up to about 1.1 µM and inactive = higher.
assay.metric: GI50

Find the measured GI50: item Cc1n[nH]c(=O)n1N=C(c1ccccc1)c1ccccc1 , target or system SK-MEL-5. > 100 µM (inactive)

Please provide the recorded GI50 for Cc1cccc(NC(=O)C(=O)C(C(=O)c2ccccc2F)C2OC(=O)c3ccccc32)c1Cl (stereo unspecified) , tested on SK-MEL-5. 64 µM (inactive)

# value lookup — system SK-MEL-5, readout GI50, item CCN(CC)c1ccc2c(c1)Oc1ccc(N(CC)CC)cc1C21Oc2ccccc2-c2c1c1ccccc1n2CC (stereo unspecified) 1.56 µM (inactive)

Enter reported GI50 observed with SK-MEL-5 for Cc1cc(Cl)ccc1Nc1sc(C(=O)c2cc3cc(Cl)ccc3o2)c(N)c1C#N 3.99 µM (inactive)

Field: GI50 (SK-MEL-5). Entry: CC(Oc1ccc(Cl)cc1Cl)C(=O)NN1C(=O)CC(=O)N(c2ccccc2)C1=S (stereo unspecified) 47.4 µM (inactive)

***
Return GI50 measured with SK-MEL-5 given this compound: ClC[Si]12OCCN(CCO1)CCO2 > 100 µM (inactive)

* * *

GI50 listing for selected compounds.
Test system: KM12
assay: NCI tumour cell line growth inhibition, 48 h
Calls of active or inactive are those of the source. Rule as the data show it: active = GI50 up to about 1.1 µM and inactive = higher.

Examples with their reported GI50 follow.
Given the entry CC(=O)Oc1cc2c(cc1OC(C)=O)C1(C)CCC2(C)c2cc(OC(C)=O)c(OC(C)=O)cc21 , report its measured GI50. 11.6 µM (inactive)

What does the data say about its GI50? Entry: N#Cc1ccc([N+](=O)[O-])cc1NC(N)=S > 100 µM (inactive)

If you can, please state the reported GI50 value of COC(=O)CCC(=O)CC(=O)C1=NS(=O)(=O)c2nc(S(N)(=O)=O)c(Cl)cc2N1 . > 100 µM (inactive)

Consider the compound shown here: O=C1CC[C@@]2(O)[C@H]3Cc4ccc(-c5cccc(O)c5)c5c4[C@@]2(CCN3CC2CC2)[C@H]1O5 What is its recorded GI50? 10 µM (inactive)

Next:
Item under review: CCOCN1COCN(C)C1=O . Reported GI50? > 100 µM (inactive)
